- Protocol notes: Study .4: 4-week treatment of diabetic patients, once daily, pharmacokinetic parameters
- Format: in vivo, human
- Run parameters: human, plasma, oral, 10 mg, 10 mg once daily, steady state, Study .4, fasted; read-out: AUCτ,ss gMean
Property: AUC (µM·h)
# unit: µM·h | format: bare number

-- ask Provide measured AUC value, entry: OC[C@H]1O[C@@H](c2ccc(Cl)c(Cc3ccc(O[C@H]4CCOC4)cc3)c2)[C@H](O)[C@@H](O)[C@@H]1O
-- reply 1.85

---

- Protocol notes: Study .1: single dose study in healthy volunteers, pharmacokinetic parameters
- Format: in vivo, human
- Run parameters: human, plasma, oral, 2.5 mg, 2.5 mg single dose, Study .1, fasted; read-out: Cmax gMean
Property: Cmax (nM)
# unit: nM | format: bare number

-- ask Provide measured Cmax value, entry: OC[C@H]1O[C@@H](c2ccc(Cl)c(Cc3ccc(O[C@H]4CCOC4)cc3)c2)[C@H](O)[C@@H](O)[C@@H]1O [Compound (I.9)]
-- reply 52.9

---

- Protocol notes: Study .1: single dose study in healthy volunteers, pharmacokinetic parameters
- Assay type: in vivo, human
- Run parameters: human, plasma, oral, 25 mg, 25 mg single dose, Study .1, fasted; read-out: tmax gMean
Property: Tmax (h)
# unit: h | format: bare number

-- ask Provide measured Tmax value, entry: OC[C@H]1O[C@@H](c2ccc(Cl)c(Cc3ccc(O[C@H]4CCOC4)cc3)c2)[C@H](O)[C@@H](O)[C@@H]1O
-- reply 2.06

---

- Protocol notes: Study .4: 4-week treatment of diabetic patients, once daily, pharmacokinetic parameters
- Assay type: in vivo, human
- Run parameters: human, plasma, oral, 25 mg, 25 mg once daily, steady state, Study .4, fasted; read-out: tmax,ss g Mean
Property: Tmax (h)
# unit: h | format: bare number

-- ask Provide measured Tmax value, entry: OC[C@H]1O[C@@H](c2ccc(Cl)c(Cc3ccc(O[C@H]4CCOC4)cc3)c2)[C@H](O)[C@@H](O)[C@@H]1O
-- reply 1.4

---

- Protocol notes: Study .4: 4-week treatment of diabetic patients, once daily, pharmacokinetic parameters
- Type: in vivo, human
- Run parameters: human, plasma, oral, 25 mg, 25 mg single dose, Study .4, fasted; read-out: tmax Mean
Property: Tmax (h)
# unit: h | format: bare number

-- ask Provide measured Tmax value, entry: OC[C@H]1O[C@@H](c2ccc(Cl)c(Cc3ccc(O[C@H]4CCOC4)cc3)c2)[C@H](O)[C@@H](O)[C@@H]1O
-- reply 1.39

---

- Protocol notes: Study .2: multiple rising dose trial in diabetic patients, once daily for 8 days, pharmacokinetic parameters
- Type: in vivo, human
- Run parameters: 25 mg once daily, steady state, Study .2, fasted; read-out: Cmax,ss Max
Property: Cmax (nM)
# unit: nM | format: bare number

-- ask Provide measured Cmax value, entry: OC[C@H]1O[C@@H](c2ccc(Cl)c(Cc3ccc(O[C@H]4CCOC4)cc3)c2)[C@H](O)[C@@H](O)[C@@H]1O
-- reply 793

---

- Protocol notes: Study .1: single dose study in healthy volunteers, pharmacokinetic parameters
- Format: in vivo, human
- Run parameters: human, plasma, oral, 2.5 mg, 2.5 mg single dose, Study .1, fasted; read-out: tmax Mean
Property: Tmax (h)
# unit: h | format: bare number

-- ask Provide measured Tmax value, entry: OC[C@H]1O[C@@H](c2ccc(Cl)c(Cc3ccc(O[C@H]4CCOC4)cc3)c2)[C@H](O)[C@@H](O)[C@@H]1O [Compound (I.9)]
-- reply 1.83
